The following binders are listed with their measured OD450 nm values.
- Tested system: monkey GPC3-His protein (monkey)
- Experiment notes: ELISA, monkey GPC3-His coated; antibody 0.004 nM
Enter the number alone.

Below are worked cases with known answers.
1) hAb007LH1L1b (antibody, human IgG1, V domains shown) VH: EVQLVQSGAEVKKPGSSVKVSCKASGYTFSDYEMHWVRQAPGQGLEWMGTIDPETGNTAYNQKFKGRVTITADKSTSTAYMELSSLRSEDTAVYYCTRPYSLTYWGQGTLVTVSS VL: DIVMTQTPLSLPVTPGEPASISCRSSQSFVHSNRDTYLQWYLQKPGQSPQLLIYKVSNRFSGVPDRFSGSGSGTDFTLKISRVEAEDVGVYYCFQGSHVPYTFGQGTKLEIK: 0.128
2) hAb003LH3L1b (antibody, human IgG1, V domains shown) VH: EVQLVQSGAEVKKPGSSVKVSCKASGYRFTDYEMHWVRQAPGQGLEWMGTIDPETGNTAYTQKFMDRVTLTADKSTSTAYMELSSLRSEDTAVYYCTRGYSFTYWGQGTLVTVSS VL: DIVMTQTPLSLPVTPGEPASISCRSSQNIVHSNRNTYLQWYLQKPGQSPQLLIFKVSNRFSGVPDRFSGSGSGTDFTLKISRVEAEDVGVYYCFQGSHVPFTFGQGTKLEIK: 0.432

Now look at this one.
Name the recorded OD450 nm of the item hAb006LH1L1b (antibody, human IgG1, V domains shown) VH: EVQLVQSGAEVKKPGSSVKVSCKASGYTFSDYEIHWVRQAPGQGLEWMGAIDPKTGNTAYNQKFMGRVTITADKSTSTAYMELSSLRSEDTAVYYCTRYFSFAYWGQGTLVTVSS VL: DIVMTQTPLSLPVTPGEPASISCRSSQTFVHSNANTYLQWYLQKPGQSPQLLIYKVSNRFSGVPDRFSGSGSGTDFTLKISRVEAEDVGVYYCFQGSHVPYTFGQGTKLEIK in your answer.
0.309
